Cited source: ChEMBL document CHEMBL1123544

- target_entity: Polyunsaturated fatty acid 5-lipoxygenase (Rattus norvegicus)
- Sequence (P12527 whole entry): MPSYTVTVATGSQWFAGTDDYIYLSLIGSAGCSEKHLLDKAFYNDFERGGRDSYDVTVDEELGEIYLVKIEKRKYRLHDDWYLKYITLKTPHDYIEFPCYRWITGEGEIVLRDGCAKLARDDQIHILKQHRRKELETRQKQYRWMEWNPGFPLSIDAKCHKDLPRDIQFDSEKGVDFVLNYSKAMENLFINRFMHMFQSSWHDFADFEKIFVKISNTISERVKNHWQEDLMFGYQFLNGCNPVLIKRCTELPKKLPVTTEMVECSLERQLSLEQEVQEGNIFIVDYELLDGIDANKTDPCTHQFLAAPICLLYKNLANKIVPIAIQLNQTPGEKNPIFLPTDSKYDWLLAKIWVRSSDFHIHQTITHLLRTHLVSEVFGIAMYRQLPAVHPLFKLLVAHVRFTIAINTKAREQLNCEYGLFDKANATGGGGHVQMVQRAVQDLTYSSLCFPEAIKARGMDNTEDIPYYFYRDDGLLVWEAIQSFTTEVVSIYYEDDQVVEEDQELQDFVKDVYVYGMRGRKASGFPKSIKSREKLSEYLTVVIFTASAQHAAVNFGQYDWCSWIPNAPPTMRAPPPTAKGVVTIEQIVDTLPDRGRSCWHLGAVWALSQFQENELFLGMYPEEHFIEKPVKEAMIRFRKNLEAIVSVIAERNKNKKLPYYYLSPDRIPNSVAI
- assay: Ability to inhibit 5-lipoxygenase in rat basophilic leukemia cells.
- Assay type: cell-based, RBL-1
pIC50: −log10 of the molar value.
measurement_type: pIC50

smiles_data=CCCCCCCCCCCCCCCCOc1c(OC)cc2oc(-c3ccc(OC(C)=O)c(OC(C)=O)c3)cc(=O)c2c1OC measurement_type=pIC50 value=5.00

a. CCCCCOc1c(OC)cc2oc(-c3ccc(OC(C)=O)c(OC(C)=O)c3)cc(=O)c2c1OC
b. CCCCCCCCCCCCOc1cc2oc(-c3ccc(O)c(O)c3)cc(=O)c2c(OC)c1OC
c. CCCCCCCCCCCCCCCCCCOc1c(OC)cc2oc(-c3ccc(O)c(O)c3)cc(=O)c2c1OC
d. COc1cc2oc(-c3ccc(O)c(O)c3)cc(=O)c2c(O)c1OCCC(C)C
e. CCCCCCCCCCCCCCCCOc1c(OC)cc2oc(-c3ccc(O)c(O)c3)cc(=O)c2c1OC
Please list the entries, largest pIC50 first. Output spec: labels arranged per the requested ranking.
d, a, b, e, c
(d: 8.05, a: 7.55, b: 7.00, e: 5.82, c: 5.00)

A. CCCCCCCCCCCCOc1cc(OC)c2c(=O)cc(-c3ccc(O)c(O)c3)oc2c1OC
B. CCCCCCCCCCCCCCCCCCOc1c(OC)c(OC)cc2oc(-c3ccc(O)c(O)c3)cc(=O)c12
C. CCCCCCCCCCCCCCCCOc1c(OC)c(OC)cc2oc(-c3ccc(O)c(O)c3)cc(=O)c12
D. CCCCCCCCOc1c(OC)cc2oc(-c3ccc(O)c(O)c3)cc(=O)c2c1O
Rank items: key pIC50, increasing. Output spec: labels arranged per the requested ranking.
B, C, A, D

A. CCCCCCCCCCCCOc1c(OC)c(OC)cc2oc(-c3ccc(O)c(O)c3)cc(=O)c12
B. CCCCCCCCCCCCCCCCCCOc1c(OC)cc2oc(-c3ccc(O)c(O)c3)cc(=O)c2c1O
Of A and B , which one carries the higher reported pIC50? Returns: label corresponding to the selected item.
A
